Catalogue of apparent KD of MS2 coat protein readings, one per entry.
# Tested on: MS2 coat protein
# test-method-notes: apparent KD of MS2 coat protein; designed switch direction (-1 OFF switch, 1 ON switch): -1; higher = weaker reporter binding
# measurement-conditions: input ligand: FMN 200 uM
Reply with a number, then the unit it belongs to.

CCGCCAUGAGGAUAUUAGUAGUAGUCAGAAAAGACUAUUACUGAGAAGGCACAUGAGGAUCACCCAUGUAGCGG [Mat - Exclusion 4 - Eli Mod - D50] (Eterna round: R97, puzzle: Exclusion 4) ... 18.8 nM
ACAUAUGACUAGGAUAUCACUAGCGAUAGCUAGUGAGAAGGAGUCACAUGAGGAUCACCCAUGUGCUCCAAUAA [Mod5 Ex6/6-A4 by Brourd] (Eterna round: R97, puzzle: Exclusion 6) ... 16.3 nM
CUCUGCACGCUGCGGUCCUACAUGAGGAUCACCCAUGUGGUCUGGUGGCGUGGGUCGCCGGACUUGGCUCGUCUUGG [salish99_S_TOV1_R5_047] (Eterna round: R97, puzzle: Sensor, turn-off variant 1) ... 15.4 nM
UCCAGCAUACGGAGAUCCAACAUGAGGAUCACCCAUGUCUGGAAAGCUUUUUGCUUGUCUUAUCCGUCUCUGUGUGU [Design #7] (Eterna round: R97, puzzle: Sensor, turn-off variant 1) ... 32.7 nM
AGCGAUUCAGGAUAUACGGGUGGGCUGGAUCUUGGAGGAGUACAUGAGGAUCACCCAUGUAGAAGGGAAUUUUC [Eternabot (L2) Solution 35] (Eterna round: R97, puzzle: Exclusion 2) ... 95.5 nM
GAGUUAACAUGAGGAAUAUACAUGAGGAUCACCCAUGUUAACAAAAUUUUUGCUCGUCUUAUAACAACAAUUAACUC [Alarm 3 - Jieux - Sensor, turn-off variant 1] (Eterna round: R97, puzzle: Sensor, turn-off variant 1) ... 272 nM

Short answer for GAGCAGCGAGGAUAUACCUGGACCUGGUCCCAGGCCGAUCAACUUGAGGAUCACCCAAGUAGAAGGCGUGGCUC [Ceortiti] (Eterna round: R97, puzzle: Exclusion 2) : apparent KD of MS2 coat protein was 322 nM

Short answer for UGUAGUUCAGGAUAUGAUGUAUAAUACAUGAGGAUCACCCAUGUAGAUCCUGAAUUUACAUCAGAAGGGAAUAUUU [JL-ex5-4.58 Brourd mod] (Eterna round: R97, puzzle: Exclusion 5) : apparent KD of MS2 coat protein was 20.4 nM

Short answer for CGCAUGUGAGGAUAUUAGUAGUAGUCAGAAUAGACUAUUACUGAGAAGGUACAUGAGGAUCACCCAUGUAUGCG [Eli x4 4.22] (Eterna round: R97, puzzle: Exclusion 4) : apparent KD of MS2 coat protein was 38.9 nM
